- assay system: T1, purified human carcinoembryonic antigen (hCEA) protein (human, UniProt P06731 35-685, limits assumed)
- T1 construct: Bought protein coated on ELISA plates or used in solution to pre-incubate the virus; also called human CEA protein; recombinant hCEA protein (ab742)
- T1 sequence (looked up): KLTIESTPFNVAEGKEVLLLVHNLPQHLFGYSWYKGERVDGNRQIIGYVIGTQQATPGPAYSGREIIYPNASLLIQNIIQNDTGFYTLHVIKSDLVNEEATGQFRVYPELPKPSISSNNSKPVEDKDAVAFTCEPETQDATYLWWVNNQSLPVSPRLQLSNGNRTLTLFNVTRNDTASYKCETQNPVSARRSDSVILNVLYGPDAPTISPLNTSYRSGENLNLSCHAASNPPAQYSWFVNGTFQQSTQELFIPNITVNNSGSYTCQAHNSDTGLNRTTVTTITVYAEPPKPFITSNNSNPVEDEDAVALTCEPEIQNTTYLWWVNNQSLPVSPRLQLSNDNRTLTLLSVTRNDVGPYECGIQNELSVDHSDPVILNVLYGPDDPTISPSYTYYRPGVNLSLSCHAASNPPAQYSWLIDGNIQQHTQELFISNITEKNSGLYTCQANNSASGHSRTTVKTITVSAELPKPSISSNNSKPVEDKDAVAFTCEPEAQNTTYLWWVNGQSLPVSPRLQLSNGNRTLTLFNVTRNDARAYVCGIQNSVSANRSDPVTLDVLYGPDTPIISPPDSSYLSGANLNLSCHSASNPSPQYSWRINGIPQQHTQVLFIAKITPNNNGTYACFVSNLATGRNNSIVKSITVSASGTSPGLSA
- protocol text: dilution ELISA, hCEA coated on plate, VHH detected with HRP/anti-E-tag mAb
recorded endpoint: EC50

// solved cases for EC50 follow
Which measured EC50 value corresponds to JJB-A3 (VHH, Alpaca anti-hCEA VHH, expressed and purified as a thioredoxin fusion protein; the methods name only JJB-A3; not shown: Thioredoxin fusion partner, E-tag and any linkers) VHH: QVQLVETGGGLVQPGGSLRLSCAASGRISDINAMGWYRQAPGKQRELVAAITSVGSNYVDSVKGRFTISKDNAKNTVYLQMYSLNPEDTAVYYCNTQCGTWLVCDGRDQWGKGTLVTVSS ?
~0.15 nM

Note, next up: JJB-B5 (VHH, Alpaca anti-hCEA VHH, expressed and purified as a thioredoxin fusion protein; not shown: Thioredoxin fusion partner, E-tag and any linkers) VHH: QVQLVETGGGLVQPGGSLRPSCTASGSIFSIYAMGWYRQASGKQRELVALITRDEVFNYADSVKGRFTISRDNAKDTVYLQMNSLKPEDTAVYYCWVETVNDHYNSGVEDYWGQGTQVTVSS
~50 nM

Note, next up: JJB-D1 (VHH, Alpaca anti-hCEA VHH, expressed and purified as a thioredoxin fusion protein; not shown: Thioredoxin fusion partner, E-tag and any linkers) VHH: QVQLVESGGLVQAGGSLRPSCAASGSIFLQNAMGWYRQVPGKQRELVAAITSVDSTNYADSVKGRFTISRDNAKNTVYLQMNSLKPEDTAVYYCNAPWNSDYHWGKGTLVTVSS
~1 nM

Next up:
Which measured EC50 value corresponds to JJB-B2 (VHH, Alpaca anti-hCEA VHH, expressed and purified as a thioredoxin fusion protein; also called clone B2; B2 sdAb; not shown: Thioredoxin fusion partner, E-tag and any linkers) VHH: QVQLVETGGGLVQPGGSLRLSCAASESIFSTYAMGWYRQAPGKQRELVAAITTNDIANYADSVKGRFTISRDNAKNTVYLQMNSLNPEDTAVYYCNAIFPPYNYWGQGTQVTVSS ?
~0.2 nM
